FYI, the data here is from patent US20240067734A1.

target: T1, di cyNKG2D ECD Fc avi (cynomolgus, biotinylated at the avi-tag); test: SPR Biacore; IgG captured by anti-Fab, antigen analyte
T1 construct: Dimeric fusion of cynomolgus NKG2D ECD to the C-terminus of an avi-tagged human IgG1 Fc; also called recombinant cynomolgus NKG2D
T1 sequence (chain, as listed by the source limits assumed): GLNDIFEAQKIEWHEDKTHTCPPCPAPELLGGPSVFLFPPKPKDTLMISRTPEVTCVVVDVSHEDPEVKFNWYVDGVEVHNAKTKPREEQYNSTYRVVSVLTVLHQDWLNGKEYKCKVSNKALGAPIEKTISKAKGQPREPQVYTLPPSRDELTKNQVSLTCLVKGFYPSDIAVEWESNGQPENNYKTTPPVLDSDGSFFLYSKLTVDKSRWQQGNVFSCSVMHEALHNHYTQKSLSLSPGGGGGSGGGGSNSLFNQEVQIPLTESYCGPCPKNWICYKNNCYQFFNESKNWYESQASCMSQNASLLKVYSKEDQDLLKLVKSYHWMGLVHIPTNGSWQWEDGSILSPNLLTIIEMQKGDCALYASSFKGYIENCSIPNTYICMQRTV
property: kon (M⁻¹ s⁻¹)
Record the value in M⁻¹ s⁻¹, omitting the unit from your answer.

Take a look at these entries with their results.
anti-NKG2D antibody clone 395 (antibody, V domains shown, From transgenic rabbits; rabbit VH, human VL) VH: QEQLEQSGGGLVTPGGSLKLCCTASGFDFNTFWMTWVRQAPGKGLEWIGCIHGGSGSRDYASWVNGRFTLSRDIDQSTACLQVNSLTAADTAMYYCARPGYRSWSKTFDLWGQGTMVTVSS VL: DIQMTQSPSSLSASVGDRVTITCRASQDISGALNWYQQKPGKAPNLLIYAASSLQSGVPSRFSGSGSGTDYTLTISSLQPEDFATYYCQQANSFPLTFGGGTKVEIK ... 47000
anti-NKG2D antibody clone 018 (antibody, V domains shown, From transgenic rabbits) VH: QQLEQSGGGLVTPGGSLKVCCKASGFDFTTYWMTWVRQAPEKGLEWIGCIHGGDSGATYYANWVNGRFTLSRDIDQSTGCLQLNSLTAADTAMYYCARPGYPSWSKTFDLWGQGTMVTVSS VL: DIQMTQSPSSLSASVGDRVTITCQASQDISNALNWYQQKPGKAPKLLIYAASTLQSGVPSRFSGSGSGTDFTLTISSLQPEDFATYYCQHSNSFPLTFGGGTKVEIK ... 39000

For the next question, use this binder.
Please look at this binder and report its kon: anti-NKG2D antibody clone 001 (antibody, V domains shown, From transgenic rabbits) VH: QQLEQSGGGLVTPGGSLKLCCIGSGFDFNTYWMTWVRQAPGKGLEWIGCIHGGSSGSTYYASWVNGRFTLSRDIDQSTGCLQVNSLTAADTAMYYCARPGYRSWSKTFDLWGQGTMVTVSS VL: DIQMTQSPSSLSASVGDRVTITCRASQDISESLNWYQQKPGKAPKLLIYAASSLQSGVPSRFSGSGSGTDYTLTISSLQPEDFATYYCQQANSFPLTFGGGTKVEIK
48000
